Recorded values, source the supplement of paper PMC10307832.

# System: NCI-H520
# Experiment description: relative viability (nuclei count vs DMSO), 5 days (fraction); higher = more cells survive
# Measurement conditions: first compound 0.0002 µM

- Compound: "CC(=O)O[C@@]12CO[C@@H]1C[C@H](O)[C@@]1(C)C(=O)[C@H](O)C3=C(C)[C@@H](OC(=O)[C@H](O)[C@@H](NC(=O)OC(C)(C)C)c4ccccc4)C[C@@](O)([C@@H](OC(=O)c4ccccc4)[C@H]21)C3(C)C [Docetaxel] + Cc1nc(Nc2ncc(C(=O)Nc3c(C)cccc3Cl)s2)cc(N2CCN(CCO)CC2)n1 [Dasatinib] (partner 0.075 µM)"
  Target or test system: "NCI-H520"
  relative viability: 0.186
- Compound: "CC(=O)O[C@@]12CO[C@@H]1C[C@H](O)[C@@]1(C)C(=O)[C@H](O)C3=C(C)[C@@H](OC(=O)[C@H](O)[C@@H](NC(=O)OC(C)(C)C)c4ccccc4)C[C@@](O)([C@@H](OC(=O)c4ccccc4)[C@H]21)C3(C)C [Docetaxel] + C[C@@H](Oc1cc(-c2cnn(C3CCNCC3)c2)cnc1N)c1c(Cl)ccc(F)c1Cl [Crizotinib] (partner 1 µM)"
  Target or test system: "NCI-H520"
  relative viability: 0.672
- Compound: "CC(=O)O[C@@]12CO[C@@H]1C[C@H](O)[C@@]1(C)C(=O)[C@H](O)C3=C(C)[C@@H](OC(=O)[C@H](O)[C@@H](NC(=O)OC(C)(C)C)c4ccccc4)C[C@@](O)([C@@H](OC(=O)c4ccccc4)[C@H]21)C3(C)C [Docetaxel] + O=C(c1cc(Cc2n[nH]c(=O)c3ccccc23)ccc1F)N1CCN(C(=O)C2CC2)CC1 [Olaparib] (partner 8 µM)"
  Target or test system: "NCI-H520"
  relative viability: 0.31
- Compound: "CC(=O)O[C@@]12CO[C@@H]1C[C@H](O)[C@@]1(C)C(=O)[C@H](O)C3=C(C)[C@@H](OC(=O)[C@H](O)[C@@H](NC(=O)OC(C)(C)C)c4ccccc4)C[C@@](O)([C@@H](OC(=O)c4ccccc4)[C@H]21)C3(C)C [Docetaxel] + COc1cccc2cc(-c3nc([C@H]4CC[C@H](C(=O)O)CC4)n4ncnc(N)c34)[nH]c12 [OSI-027] (partner 0.5 µM)"
  Target or test system: "NCI-H520"
  relative viability: 0.209

###

# Tested on: EPLC-272H
# Experiment description: relative viability (nuclei count vs DMSO), 5 days (fraction); higher = more cells survive
# Measurement conditions: first compound 500 µM
Output criterion met for records whose relative viability is lower than 0.08, criterion not met for records at or above 0.08.

- Compound: "O=C(O)CCCCC(CCSCc1ccccc1)SCc1ccccc1 (stereo unspecified) [CPI-613] + O=C(c1cc(Cc2n[nH]c(=O)c3ccccc23)ccc1F)N1CCN(C(=O)C2CC2)CC1 [Olaparib] (partner 8 µM)"
  Class label: "criterion not met"
- Compound: "O=C(O)CCCCC(CCSCc1ccccc1)SCc1ccccc1 (stereo unspecified) [CPI-613] + CC(=O)c1c(C)c2cnc(Nc3ccc(N4CCNCC4)cn3)nc2n(C2CCCC2)c1=O [Palbociclib] (partner 0.5 µM)"
  Class label: "criterion not met"
- Compound: "O=C(O)CCCCC(CCSCc1ccccc1)SCc1ccccc1 (stereo unspecified) [CPI-613] + Nc1ncn([C@H]2C[C@H](O)[C@@H](CO)O2)c(=O)n1 [Decitabine] (partner 2 µM)"
  Class label: "criterion not met"
- Compound: "O=C(O)CCCCC(CCSCc1ccccc1)SCc1ccccc1 (stereo unspecified) [CPI-613] + N=C(N)NC(=N)NCCc1ccccc1 [Phenformin] (partner 250 µM)"
  Class label: "criterion met"
- Compound: "O=C(O)CCCCC(CCSCc1ccccc1)SCc1ccccc1 (stereo unspecified) [CPI-613] + COc1cccc2cc(-c3nc([C@H]4CC[C@H](C(=O)O)CC4)n4ncnc(N)c34)[nH]c12 [OSI-027] (partner 0.5 µM)"
  Class label: "criterion met"
- Compound: "O=C(O)CCCCC(CCSCc1ccccc1)SCc1ccccc1 (stereo unspecified) [CPI-613] + C[C@@H](Oc1cc(-c2cnn(C3CCNCC3)c2)cnc1N)c1c(Cl)ccc(F)c1Cl [Crizotinib] (partner 1 µM)"
  Class label: "criterion not met"
